# tgt: Papain (Carica papaya)
# methodSummary: Primary qHTS assay for inhibitors of the protease papain (AID 1645873);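 note: papain turnover of Z-FR-AMC read as the AMC fluorescence gain over 10 min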
# runConditions: papain Z-FR-AMC cleavage, AMC fluorescence; series mostly up to 49.8 µM
Inconclusive results are not listed. The source made the active and inactive calls. Calls come from the whole dose curve; as a rule, active = well fitted inhibition curve with a large enough effect; inconclusive = small, poorly fitted or top-dose-only effect; inactive = no such curve, though single readings can be large or run the other way.
Answer with one of the outcomes given here: class 1 for active, class 0 for inactive

Please share the test call associated with COCCOc1cc2ncnc(Cl)c2cc1OCCOC .
class 0

Then OC[C@H]1O[C@@H](n2cnc3c(NC4CCCC4)ncnc32)[C@H](O)[C@@H]1O ?
class 0

Then NCCCS(=O)(=O)O ?
class 0

Then Cc1cn([C@H]2CC(N=[N+]=[N-])[C@@H](CO)O2)c(=O)[nH]c1=O (stereo not given in full) ?
class 0

Then c1cnc2c(c1)ccc1cccnc12 ?
class 1
